Test: self-splicing fitness, log relative to wild type (ln ratio); higher = more splicing; Tetrahymena group I intron in knt gene, E. coli kanamycin selection, DiMSum; sequences stand for … in CUCUCU…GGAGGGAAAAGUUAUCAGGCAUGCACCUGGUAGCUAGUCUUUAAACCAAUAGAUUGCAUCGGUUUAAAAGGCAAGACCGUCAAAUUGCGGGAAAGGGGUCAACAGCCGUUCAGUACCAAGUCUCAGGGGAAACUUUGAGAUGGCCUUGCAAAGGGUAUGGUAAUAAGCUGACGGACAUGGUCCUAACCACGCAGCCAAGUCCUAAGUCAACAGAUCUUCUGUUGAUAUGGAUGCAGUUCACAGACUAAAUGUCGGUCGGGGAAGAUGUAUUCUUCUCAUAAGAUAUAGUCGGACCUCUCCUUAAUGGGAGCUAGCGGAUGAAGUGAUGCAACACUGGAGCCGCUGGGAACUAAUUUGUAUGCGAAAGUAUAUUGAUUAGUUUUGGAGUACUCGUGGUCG;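 note: selection with 25 µg/mL kanamycin versus none on LB agar overnight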
Settings: 30 °C
result_type: self-splicing fitness (ln)
Just the number, please, no unit attached.

Problem: Give me measured self-splicing fitness (ln), please, for this sequence: CCGCAGCAAUAUUACGGCCA
Solution: -4.11

* * *

We begin with a simple list: items and their reported self-splicing fitness (ln).
Test: self-splicing fitness, log relative to wild type (ln ratio); higher = more splicing; Tetrahymena group I intron in knt gene, E. coli kanamycin selection, DiMSum; sequences stand for … in CUCUCU…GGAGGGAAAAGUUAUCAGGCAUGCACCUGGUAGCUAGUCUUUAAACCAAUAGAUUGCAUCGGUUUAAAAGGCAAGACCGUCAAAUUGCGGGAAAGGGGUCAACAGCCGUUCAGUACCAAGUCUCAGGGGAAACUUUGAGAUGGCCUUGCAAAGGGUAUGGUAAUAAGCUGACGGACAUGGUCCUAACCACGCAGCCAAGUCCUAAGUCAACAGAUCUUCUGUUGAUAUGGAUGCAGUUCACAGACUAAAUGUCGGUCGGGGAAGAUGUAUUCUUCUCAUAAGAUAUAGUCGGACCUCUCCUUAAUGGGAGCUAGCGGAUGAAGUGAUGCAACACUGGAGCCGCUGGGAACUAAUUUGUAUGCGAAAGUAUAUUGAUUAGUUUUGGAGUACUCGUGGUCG
Settings: 30 °C

# example entries with known answers
# sequence, result_type, observed_value
records = [
    ("GGUUAGCAAUAUUACGCCCA", "self-splicing fitness (ln)", -0.993),
    ("GUAUAGCAAUAUUACGUUCU", "self-splicing fitness (ln)", -2.27),
    ("ACCGAGCAAUAUUACGCGGA", "self-splicing fitness (ln)", -2.09),
    ("ACCUAGCAAUAUUACGGACC", "self-splicing fitness (ln)", -0.548),
    ("AGUGAGCAAUAUUACGGGAG", "self-splicing fitness (ln)", -5.04),
]

Problem: Give me measured self-splicing fitness (ln), please, for this sequence: CAUGAGCAAUAUUACGAGUC
Solution: -4.56

Problem: Give me measured self-splicing fitness (ln), please, for this sequence: CGCUAGCAAUAUUACGGGAG
Solution: -2.79

Problem: Give me measured self-splicing fitness (ln), please, for this sequence: UGCUAGCAAUAUUACGAGUA
Solution: -1.34

Problem: Give me measured self-splicing fitness (ln), please, for this sequence: GCAGAGCAAUAUUACGCCAU
Solution: -3.75

Problem: Give me measured self-splicing fitness (ln), please, for this sequence: CUUUAGCAAUAUUACGGGGC
Solution: -3.44

Problem: Give me measured self-splicing fitness (ln), please, for this sequence: GAUCAGCAAUAUUACGGGGU
Solution: -3.13

Problem: Give me measured self-splicing fitness (ln), please, for this sequence: UAUCAGCAAUAUUACGUAUG
Solution: -0.321

Problem: Give me measured self-splicing fitness (ln), please, for this sequence: GAGAAGCAAUAUUACGCAGC
Solution: -3.2

Problem: Give me measured self-splicing fitness (ln), please, for this sequence: GAGCAGCAAUAUUACGUCGC
Solution: -2.31

Problem: Give me measured self-splicing fitness (ln), please, for this sequence: CAACAGCAAUAUUACGACCA
Solution: -1.66

Problem: Give me measured self-splicing fitness (ln), please, for this sequence: GUUAAGCAAUAUUACGACCA
Solution: -0.467

Problem: Give me measured self-splicing fitness (ln), please, for this sequence: ACGGAGCAAUAUUACGAAUU
Solution: -3.52

Problem: Give me measured self-splicing fitness (ln), please, for this sequence: UCUUAGCAAUAUUACGUGGG
Solution: -3.96

Problem: Give me measured self-splicing fitness (ln), please, for this sequence: AGGAAGCAAUAUUACGCUGG
Solution: -3.46

Problem: Give me measured self-splicing fitness (ln), please, for this sequence: AGUAAGCAAUAUUACGUUGC
Solution: -4.14

Problem: Give me measured self-splicing fitness (ln), please, for this sequence: CCUGAGCAAUAUUACGUAGU
Solution: -3.18

Problem: Give me measured self-splicing fitness (ln), please, for this sequence: GAUUAGCAAUAUUACGCCCU
Solution: -0.409

Problem: Give me measured self-splicing fitness (ln), please, for this sequence: UGAUAGCAAUAUUACGUAAG
Solution: -1.52

Problem: Give me measured self-splicing fitness (ln), please, for this sequence: AUCAAGCAAUAUUACGAAUG
Solution: -3.16

Problem: Give me measured self-splicing fitness (ln), please, for this sequence: UAACAGCAAUAUUACGCGAC
Solution: -3.97

Problem: Give me measured self-splicing fitness (ln), please, for this sequence: CCUAAGCAAUAUUACGGCCC
Solution: -2.37

Problem: Give me measured self-splicing fitness (ln), please, for this sequence: AAGUAGCAAUAUUACGAUGC
Solution: -2.76

Problem: Give me measured self-splicing fitness (ln), please, for this sequence: AUAUAGCAAUAUUACGUGUC
Solution: -4.06

* * *

We begin with a simple list: items and their reported self-splicing fitness (ln).
Assay: self-splicing fitness, log relative to wild type (ln ratio); higher = more splicing; Tetrahymena group I intron in knt gene, E. coli kanamycin selection, DiMSum; sequences stand for … in CUCUCU…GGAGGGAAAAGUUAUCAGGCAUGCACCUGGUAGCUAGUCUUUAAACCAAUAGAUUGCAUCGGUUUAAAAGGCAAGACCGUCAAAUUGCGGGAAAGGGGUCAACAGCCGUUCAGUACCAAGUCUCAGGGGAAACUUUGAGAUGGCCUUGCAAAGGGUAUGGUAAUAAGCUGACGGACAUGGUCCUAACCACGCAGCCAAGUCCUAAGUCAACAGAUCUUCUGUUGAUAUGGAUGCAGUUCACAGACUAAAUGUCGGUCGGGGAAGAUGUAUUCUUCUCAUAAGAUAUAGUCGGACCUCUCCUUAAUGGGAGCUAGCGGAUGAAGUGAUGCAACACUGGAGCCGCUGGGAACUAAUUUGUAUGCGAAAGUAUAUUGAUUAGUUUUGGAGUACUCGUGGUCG
Conditions: 30 °C
Just the number, please, no unit attached.

# example entries with known answers
# sequence, self-splicing fitness (ln)
records = [
    ("UUGGAGCAAUAUUACGAGGU", -2.02),
    ("GAGCAGCAAUAUUACGGUCG", -2),
    ("UGGCAGCAAUAUUACGUAGG", -0.869),
    ("ACCCAGCAAUAUUACGGCUG", -3.68),
    ("UCCAAGCAAUAUUACGGGUA", -0.53),
]

Let's switch to this sequence now.
Problem: Give me measured self-splicing fitness (ln), please, for this sequence: GACCAGCAAUAUUACGCAUU
Solution: -0.15

* * *

Test: self-splicing fitness, log relative to wild type (ln ratio); higher = more splicing; Tetrahymena group I intron in knt gene, E. coli kanamycin selection, DiMSum; sequences stand for … in CUCUCU…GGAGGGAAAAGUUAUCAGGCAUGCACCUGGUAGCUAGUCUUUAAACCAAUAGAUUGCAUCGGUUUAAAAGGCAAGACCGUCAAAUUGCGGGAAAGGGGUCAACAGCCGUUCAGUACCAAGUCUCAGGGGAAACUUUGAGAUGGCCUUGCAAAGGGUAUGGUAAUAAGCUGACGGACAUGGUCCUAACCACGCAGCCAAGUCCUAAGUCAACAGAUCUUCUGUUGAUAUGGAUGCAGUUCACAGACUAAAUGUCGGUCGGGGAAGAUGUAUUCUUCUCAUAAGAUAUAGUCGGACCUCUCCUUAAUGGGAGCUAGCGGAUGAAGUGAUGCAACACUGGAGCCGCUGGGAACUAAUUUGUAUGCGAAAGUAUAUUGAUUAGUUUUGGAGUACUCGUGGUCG
Details: 30 °C
We begin with a simple list: items and their reported self-splicing fitness (ln).
Just the number, please, no unit attached.

# example entries with known answers
# sequence, result_type, observed_value
records = [
    ("GCCAAGCAAUAUUACGGUGU", "self-splicing fitness (ln)", -1.48),
    ("CAGCAGCAAUAUUACGGUUG", "self-splicing fitness (ln)", -3.04),
    ("GUUAAGCAAUAUUACGACAA", "self-splicing fitness (ln)", -0.704),
    ("GUAAAGCAAUAUUACGUCCC", "self-splicing fitness (ln)", -1.07),
    ("AGCCAGCAAUAUUACGCACC", "self-splicing fitness (ln)", -0.939),
    ("UCCGAGCAAUAUUACGAGAU", "self-splicing fitness (ln)", -3.41),
    ("CAGCAGCAAUAUUACGACUC", "self-splicing fitness (ln)", -0.922),
    ("CUGGAGCAAUAUUACGAGGG", "self-splicing fitness (ln)", -2.67),
    ("ACCUAGCAAUAUUACGUUCG", "self-splicing fitness (ln)", -1.5),
    ("UGACAGCAAUAUUACGUGAU", "self-splicing fitness (ln)", -3.05),
]

Problem: Give me measured self-splicing fitness (ln), please, for this sequence: AAGGAGCAAUAUUACGCUAC
Solution: -2.75

Problem: Give me measured self-splicing fitness (ln), please, for this sequence: ACUGAGCAAUAUUACGUCCA
Solution: -3.1

Problem: Give me measured self-splicing fitness (ln), please, for this sequence: AUUCAGCAAUAUUACGCCUA
Solution: -0.46

Problem: Give me measured self-splicing fitness (ln), please, for this sequence: UUGUAGCAAUAUUACGUCUA
Solution: -0.856
